assay: In vitro radiosensitizing activity against Chinese Hamster cells at a conc of 0.5 mM measured as sensitizer enhancement ratio; format: functional, Cricetulus griseus

| molecule | SER |
| --- | --- |
| CC(=O)OC[C@H]1O[C@@H](n2ccnc2[N+](=O)[O-])C=C[C@@H]1OC(C)=O | 1.6 |
| CC(=O)OCC1OC=CC(n2ccnc2[N+](=O)[O-])C1OC(C)=O (centres undefined) | 1.8 |
| O=[N+]([O-])c1nccn1[C@@H]1C=C[C@H](O)[C@@H](CO)O1 | 2 |
| CC(=O)OC[C@H]1O[C@H](n2ccnc2[N+](=O)[O-])C=C[C@@H]1OC(C)=O | 1.9 |
